Biological target: T1, cynomolgus Gamma/Delta1A TCR-Fc fusion protein (cynomolgus monkey, biotinylated in vitro with recombinant BirA (AviTag))
T1 construct: First chain = delta, second = gamma; also called Cyno D1; cyno D1; not shown: Fc portion of mouse IgG, then AviTag and His6 tag at the C-terminus; Fc portion of mouse IgG
T1 sequence (chain, as listed by the source mutant, chain 1 of 2): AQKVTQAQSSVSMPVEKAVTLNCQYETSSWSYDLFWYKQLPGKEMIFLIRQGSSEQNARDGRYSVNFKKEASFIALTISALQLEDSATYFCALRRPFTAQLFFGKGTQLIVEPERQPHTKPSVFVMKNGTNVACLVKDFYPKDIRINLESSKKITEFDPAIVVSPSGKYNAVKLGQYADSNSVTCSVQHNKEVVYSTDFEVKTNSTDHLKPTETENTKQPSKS
T1 sequence (chain, as listed by the source mutant, chain 2 of 2): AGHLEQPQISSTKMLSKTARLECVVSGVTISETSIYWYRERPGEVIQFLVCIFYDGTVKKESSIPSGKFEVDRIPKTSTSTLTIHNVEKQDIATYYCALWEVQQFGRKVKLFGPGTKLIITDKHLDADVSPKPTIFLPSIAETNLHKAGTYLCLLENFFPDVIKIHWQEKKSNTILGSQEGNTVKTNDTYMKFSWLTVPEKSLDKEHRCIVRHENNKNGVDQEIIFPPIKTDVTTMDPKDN
Assay: bead binding assay (TCR-Fc on streptavidin beads, IgG titrated, flow cytometry); apparent KD
endpoint_name: pKd
Convention used: pKd is expressed as -log10 of the molar concentration.

{"columns": ["binder", "measured"],
 "data": [
  ["Delta1-41 (antibody, V domains shown, Tested in the human IgG format; also called anti-Delta1-41) VH: EVQLVESGGGLVQPGGSLRLSCAASGFTFSANDIHWVRQAPGKGLEWVASIYSSSGYTYYADSVKGRFTISADTSKNTAYLQMNSLRAEDTAVYYCARDPGSYYWYYSGSAYEGYGLDYWGQGTLVTVSS VL: DIQMTQSPSSLSASVGDRVTITCRASQSVSSAVAWYQQKPGKAPKLLIYAASSLQSGVPSRFSGSRSGTDFTLTISSLQPEDFATYYCQQQSKYPFLITFGQGTKVEIKR", 8.57],
  ["Delta1-29 (antibody, V domains shown, Tested in the human IgG format) VH: EVQLVESGGGLVQPGGSLRLSCAASGFTVSSSSIHWVRQAPGKGLEWVASIYSSSGYTYYADSVKGRFTISADTSKNTAYLQMNSLRAEDTAVYYCARDPGSYYWYYSGSAYEGYGLDYWGQGTLVTVSS VL: DIQMTQSPSSLSASVGDRVTITCRASQSVSSAVAWYQQKPGKAPKLLIYAASSLQSGVPSRFSGSRSGTDFTLTISSLQPEDFATYYCQQSGDDLITFGQGTKVEIKR", 7.52]
]}

Here's the next entry for you.
Record Delta1-24 (antibody, V domains shown, Tested in the human IgG format) VH: EVQLVESGGGLVQPGGSLRLSCAASGFTVSSSSIHWVRQAPGKGLEWVASIYSSSGYTYYADSVKGRFTISADTSKNTAYLQMNSLRAEDTAVYYCARDPGSYYWYYSGSAYEGYGLDYWGQGTLVTVSS VL: DIQMTQSPSSLSASVGDRVTITCRASQSVSSAVAWYQQKPGKAPKLLIYAASSLQSGVPSRFSGSRSGTDFTLTISSLQPEDFATYYCQQSNRSYPPLTFGQGTKVEIKR . Reported pKd: 8.94
